TARGET OR SYSTEM: T1, Grb2 SH2 domain (UniProt P62993 60-152, biotin (biotinylated SH2 domain of the selection))
T1 construct: SH2 domain of the adapter protein Grb2; source: purified
T1 sequence (P62993 60-152): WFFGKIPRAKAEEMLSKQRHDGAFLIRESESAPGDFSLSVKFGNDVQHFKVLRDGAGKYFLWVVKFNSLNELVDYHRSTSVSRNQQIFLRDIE
TEST PROTOCOL: fluorescence polarisation; competition mode; unlabelled phosphopeptide against 30 nM FITC-Ahx-FDDPS(pY)VNVQN and 123 nM Grb2 SH2 (Table S3)
RUN CONDITIONS: both partners purified
Non-standard residues stand in square brackets, D forms with d. pY = N[C@@H](Cc1ccc(OP(=O)(O)O)cc1)C(=O)O
Parameter: Kd. Scope: all listed entries.
MEASURED PARAMETER: Kd

>>> df
                                     binder  recorded_value
0  Ac-QKEAHH[pY]VNWRTG-NH2 (source: synthetic peptide (SynPeptide, China)) [Syn-G2-1 (synthetic)]         31.8 nM
1  Ac-QHNIHS[pY]INIPPG-NH2 (source: synthetic peptide (SynPeptide, China)) [Syn-G2-2 (synthetic)]         3.99 nM
2  Ac-QLGHQR[pY]HNITPG-NH2 (source: synthetic peptide (SynPeptide, China)) [Syn-G2-5 (synthetic)]          487 nM
3  Ac-QIEVGT[pY]QNPHNG-NH2 (source: synthetic peptide (SynPeptide, China)) [Syn-G2-7 (synthetic)]         3240 nM
4  Ac-QHRLNN[pY]ENNRLG-NH2 (source: synthetic peptide (SynPeptide, China)) [Syn-G2-6 (synthetic)]         2250 nM
